Target: SSTR2 (Homo sapiens, UniProt P30874)
Sequence (P30874 whole entry): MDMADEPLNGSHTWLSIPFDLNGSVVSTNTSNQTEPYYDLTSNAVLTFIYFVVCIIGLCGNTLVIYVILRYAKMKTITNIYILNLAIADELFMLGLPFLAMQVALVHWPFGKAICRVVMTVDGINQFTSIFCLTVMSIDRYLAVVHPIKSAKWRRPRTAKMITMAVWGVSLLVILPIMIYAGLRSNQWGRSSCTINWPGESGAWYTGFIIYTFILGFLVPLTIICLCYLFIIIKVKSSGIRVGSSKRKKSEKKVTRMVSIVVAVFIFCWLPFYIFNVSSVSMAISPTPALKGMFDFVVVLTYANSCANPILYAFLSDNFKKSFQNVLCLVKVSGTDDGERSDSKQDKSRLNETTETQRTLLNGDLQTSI
Test: SSTR binding affinity by radioligand binding competition assay ([125I]-Tyr11-Somatostatin, membrane extracts)
Settings: radioligand competition, [125I]-Tyr11-Somatostatin 0.1 nM, membrane extracts; Ki from IC50 by Cheng Prusoff; read-out: SSTR2 Ki
Numbered stars: 1 amine (or outer) side, 2 acyl side, 3 side chain; on linkers, the order of the positions; unused ones are H or OH. Square brackets hold non-standard residues; d marks the D form. Peptide text beside a SMILES is read from it. * marks the point of attachment. DOTA(Lu)NH(CH2)6NHCOCH2 = O=C(CN1CCN2CCN3CCN(CC1)CC(=O)[O][Lu]([O]C(=O)C2)[O]C(=O)C3)NCCCCCCNC(=O)C*; DOTA(Lu) = O=C1CN2CCN3CCN(CC(=O)*)CCN(CC2)CC(=O)[O][Lu]([O]1)[O]C(=O)C3; Ala(piperidin-4-yl) = O=C([C@H](CC1CCN([*:3])CC1)N[*:1])[*:2]; dTrp(βS-Me) = C[C@@H](c1c[nH]c2ccccc12)[C@@H](N)C(=O)O; X19 = O=C([C@H](Cc1c[nH]c2ccncc12)N[*:1])[*:2]; Tyr(Ph) = N[C@@H](Cc1ccc(Oc2ccccc2)cc1)C(=O)O; mTyr = N[C@@H](Cc1cccc(O)c1)C(=O)O; NMehCys = CN[C@@H](CCS)C(=O)O; Cba = N[C@@H](CC1CCC1)C(=O)O; NMeK = CN[C@@H](CCCCN)C(=O)O
endpoint: Ki

# lookup: Ki of C[C@@H](O)[C@@H]1NC(=O)[C@H](CCCCN)NC(=O)[C@@H](Cc2c[nH]c3ccccc23)NC(=O)[C@H](Cc2ccc(O)cc2)NC(=O)[C@H](CC(=O)NCCCCCCNC(=O)CN2CCN3CCN4CCN(CC2)CC(=O)[O][Lu]([O]C(=O)C3)[O]C(=O)C4)N(C)C(=O)[C@H](Cc2ccccc2)NC1=O
3.33 to 10 nM

Also C[C@@H](O)[C@@H]1NC(=O)[C@H](CCCCN)NC(=O)[C@H](Cc2c[nH]c3ccncc23)NC(=O)[C@H](Cc2ccc(O)cc2)NC(=O)[C@H](CCSCC(=O)NCCCCCCNC(=O)CN2CCN3CCN4CCN(CC2)CC(=O)[O][Lu]([O]C(=O)C3)[O]C(=O)C4)N(C)C(=O)[C@H](Cc2ccccc2)NC1=O [RB-0005903] (cyclo(F[NMehCys](DOTA(Lu)NH(CH2)6NHCOCH2)Y[X19]KT)) , if possible.
< 1 nM

Also C[C@@H](O)[C@@H]1NC(=O)[C@H](CC2CCNCC2)NC(=O)[C@@H](Cc2c[nH]c3ccccc23)NC(=O)[C@H](Cc2ccc(O)cc2)NC(=O)[C@H](CCCCNC(=O)CN2CCN3CCN4CCN(CC2)CC(=O)[O][Lu]([O]C(=O)C3)[O]C(=O)C4)N(C)C(=O)[C@H](Cc2cccc(O)c2)NC1=O [RB-0005984] (cyclo([NMeK](DOTA(Lu))Y[dW][Ala(piperidin-4-yl)]T[mTyr])) , if possible.
1 to 3.33 nM

Also CN1C(=O)[C@H](Cc2ccccc2)NC(=O)[C@H](CC2CCC2)NC(=O)[C@H](CCCCN)NC(=O)[C@@H](Cc2c[nH]c3ccccc23)NC(=O)[C@H](Cc2ccc(O)cc2)NC(=O)[C@@H]1CCSCC(=O)NCCCCCCNC(=O)CN1CCN2CCN3CCN(CC1)CC(=O)[O][Lu]([O]C(=O)C2)[O]C(=O)C3 [RB-0004621] (cyclo([Cba]F[NMehCys](DOTA(Lu)NH(CH2)6NHCOCH2)Y[dW]K)) , if possible.
< 1 nM

Also C[C@@H](O)[C@@H]1NC(=O)[C@H](CC2CCNCC2)NC(=O)[C@@H]([C@@H](C)c2c[nH]c3ccccc23)NC(=O)[C@H](Cc2ccc(Oc3ccccc3)cc2)NC(=O)[C@H](CCCCNC(=O)CN2CCN3CCN4CCN(CC2)CC(=O)[O][Lu]([O]C(=O)C3)[O]C(=O)C4)N(C)C(=O)[C@H](Cc2ccccc2)NC1=O [RB-0006237] (cyclo(F[NMeK](DOTA(Lu))[Tyr(Ph)][dTrp(βS-Me)][Ala(piperidin-4-yl)]T)) , if possible.
3.33 to 10 nM
